QUANTITY_NAME: logP
Enter the number alone.

[ask] Specify reported logP for the compound shown: CC(C)C[C@H](NC(=O)C[C@H](O)[C@H](CC(C)C)NC(=O)[C@H](Cc1c[nH]cn1)NC(=O)CNC(=O)[C@@H](NC(=O)[C@H](C)NC(=O)[C@H](Cc1c[nH]c2ccccc12)NC(=O)[C@H](CCC(N)=O)NC(=O)[C@@H](Cc1ccccc1)NC(=O)CN1CCC(NC(=O)OC2CCCc3c(cnnc3-c3ccc(CNC(=O)CN4CCN(CC(=O)O)CCN(CC(=O)O)CCN(CC(=O)O)CC4)cc3)CC2)CC1)C(C)C)C(N)=O (stereo partly drawn) [[^111In]In-DOTA-Tz-TCO-Pip-AR, metal not drawn]
[reply] -1.28

[ask] Specify reported logP for the compound shown: CC(C)C[C@H](NC(=O)C[C@H](O)[C@H](CC(C)C)NC(=O)[C@H](Cc1c[nH]cn1)NC(=O)CNC(=O)[C@@H](NC(=O)[C@H](C)NC(=O)[C@H](Cc1c[nH]c2ccccc12)NC(=O)[C@H](CCC(N)=O)NC(=O)[C@@H](Cc1ccccc1)NC(=O)CCOCCOCCOCCOCCNC(=O)OC1CCCc2c(cnnc2-c2ccc(CNC(=O)CCC(C(=O)O)N3CCN(CC(=O)O)CCN(CC(=O)O)CCN(CC(=O)O)CC3)cc2)CC1)C(C)C)C(N)=O (stereo partly drawn) [[^111In]In-DOTAGA-Tz-TCO-PEG4-AR, metal not drawn]
[reply] -1.18

[ask] Specify reported logP for the compound shown: CC(C)C[C@H](NC(=O)C[C@H](O)[C@H](CC(C)C)NC(=O)[C@H](Cc1c[nH]cn1)NC(=O)CNC(=O)[C@@H](NC(=O)[C@H](C)NC(=O)[C@H](Cc1c[nH]c2ccccc12)NC(=O)[C@H](CCC(N)=O)NC(=O)[C@@H](Cc1ccccc1)NC(=O)CCOCCOCCOCCOCCNC(=O)OC1CCCc2c(cnnc2-c2ccc(CNC(=O)CN3CCN(CC(=O)O)CCN(CC(=O)O)CCN(CC(=O)O)CC3)cc2)CC1)C(C)C)C(N)=O (stereo partly drawn) [[^111In]In-DOTA-Tz-TCO-PEG4-AR, metal not drawn]
[reply] -1.2

* * *

QUANTITY_NAME: logP
Enter the number alone.

[ask] Specify reported logP for the compound shown: CC(C)C[C@H](NC(=O)C[C@H](O)[C@H](CC(C)C)NC(=O)[C@H](Cc1c[nH]cn1)NC(=O)CNC(=O)[C@@H](NC(=O)[C@H](C)NC(=O)[C@H](Cc1c[nH]c2ccccc12)NC(=O)[C@H](CCC(N)=O)NC(=O)[C@@H](Cc1ccccc1)NC(=O)CN1CCC(NC(=O)OC2CCCc3c(cnnc3-c3ccc(CNC(=O)CCC(C(=O)O)N4CCN(CC(=O)O)CCN(CC(=O)O)CCN(CC(=O)O)CC4)cc3)CC2)CC1)C(C)C)C(N)=O (stereo partly shown) [[^111In]In-DOTAGA-Tz-TCO-Pip-AR, metal not drawn]
[reply] -0.9
